molecular target: Mature human IL-6 (human, UniProt P05231 30-212); assay: cell-based or functional assay
Sequence (P05231 30-212): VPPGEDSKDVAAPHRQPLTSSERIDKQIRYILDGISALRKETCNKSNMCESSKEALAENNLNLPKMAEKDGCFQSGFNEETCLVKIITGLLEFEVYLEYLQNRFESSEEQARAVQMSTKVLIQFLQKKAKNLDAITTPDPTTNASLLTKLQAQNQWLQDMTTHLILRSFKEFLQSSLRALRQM
RESULT TYPE: IC50, TF-1 cell proliferation assay (nM)
Supply the numeric figure in nM, leaving out any unit text.

Past entries and their recorded results:
1) Antibody 16 IgG (antibody, V domains shown) VH: EVQLVQSGGGLIQPGGSLRLSCAASGFTISSNYMIWVRQAPGKGLEWVSDLYYYAGDTYYADSVKGRFTMSRDISKNTVYLQMNSLRAEDTGVYYCARWADDHPPYIDLWGRGTLVTVSS VL: DIVMTQSPSTLSASVGDRVTITCRASQGISSWLAWYQQKPGRAPKVLIYKASTLESGVPSRFSGSGSGTDFTLTISSLQPEDFATYYCQQSWLGGSFGQGTKLEIKR
0.0049
2) Antibody 14 IgG (antibody, V domains shown) VH: EVQLVQSGGGLIQPGGSLRLSCAASGFTISSNYMIWVRQAPGKGLEWVSDLYYYAGDTYYADSVKGRFTMSRDISKNTVYLQMNSLRAEDTGVYYCARWADDHNYPHIDVWGRGTLVTVSS VL: DIVMTQSPSTLSASVGDRVTITCRASQGISSWLAWYQQKPGRAPKVLIYKASTLESGVPSRFSGSGSGTDFTLTISSLQPEDFATYYCAAHYAAPWTFGQGTKLEIKR
0.031
3) Antibody 8 IgG (antibody, V domains shown) VH: EVQLVQSGGGLIQPGGSLRLSCAASGFTISSNYMIWVRQAPGKGLEWVSDLYYYAGDTYYADSVKGRFTMSRDISKNTVYLQMNSLRAEDTGVYYCARWADDHPRYIDHWGRGTLVTVSS VL: DIVMTQSPSTLSASVGDRVTITCRASQGISSWLAWYQQKPGRAPKVLIYKASTLESGVPSRFSGSGSGTDFTLTISSLQPEDFATYYCQQSWLGGSFGQGTKLEIKR
0.048

Check the records and state IC50, TF-1 cell proliferation assay for Antibody 19 IgG (antibody, V domains shown) VH: EVQLVQSGGGLIQPGGSLRLSCAASGFTISSNYMIWVRQAPGKGLEWVSDLYYYAGDTYYADSVKGRFTMSRDISKNTVYLQMNSLRAEDTGVYYCARWADDHPSHLDIWGRGTLVTVSS VL: DIVMTQSPSTLSASVGDRVTITCRASQGISSWLAWYQQKPGRAPKVLIYKASTLESGVPSRFSGSGSGTDFTLTISSLQPEDFATYYCQQSWLGGSFGQGTKLEIKR 0.068

Provide IC50, TF-1 cell proliferation assay value for the following binder: Antibody 23 IgG (antibody, V domains shown) VH: EVQLVQSGGGLIQPGGSLRLSCAASGFTISSNYMIWVRQAPGKGLEWVSDLYYYAGDTYYADSVKGRFTMSRDISKNTVYLQMNSLRAEDTGVYYCARWADDHAPWVDLWGRGTLVTVSS VL: DIVMTQSPSTLSASVGDRVTITCRASQGISSWLAWYQQKPGRAPKVLIYKASTLESGVPSRFSGSGSGTDFTLTISSLQPEDFATYYCQQSWLGGSFGQGTKLEIKR 0.02
